Recorded measurements of Mouse weight (%), one per entry
- Test system: colo320 colorectal cancer tumor model
- CONDITION_LABEL: 5 mg/kg once a week for four weeks; Table 8

>  <RECORD_SMILES>
CCCCNCCc1c2c(nc3ccccc13)-c1cc3c(c(=O)n1C2)COC(=O)[C@]3(O)CC

>  <EXPERIMENTAL_VALUE>
+5%

$$$$
>  <RECORD_SMILES>
CC[C@@]1(O)C(=O)OCc2c1cc1n(c2=O)Cc2c-1nc1ccccc1c2CCNCC(C)C

>  <EXPERIMENTAL_VALUE>
+8%

$$$$

Measured Mouse weight (%), CCCNCCc1c2c(nc3ccccc13)-c1cc3c(c(=O)n1C2)COC(=O)[C@]3(O)CC : +7%

---

Listed below: Mouse weight (%) values for each entry.
- System: colo320 colorectal cancer tumor model
- CONDITION_LABEL: Table 14 (Example 43); dose 45 mg/kg, once a week for four weeks; BALB/c mice
Where a SMILES comes first, the peptide text is derived from it. The star is where a group is joined. NEt(2-(20S-CPT-7-yl)ethyl) = CCN(CCc1c2c(nc3ccccc13)-c1cc3c(c(=O)n1C2)COC(=O)[C@]3(O)CC)*; Belotecan = CC[C@@]1(O)C(=O)OCc2c1cc1n(c2=O)Cc2c-1nc1ccccc1c2CCN(C(C)C)*; X3 = CC[C@@]1(O)C(=O)OCc2c1cc1n(c2=O)Cc2c-1nc1ccccc1c2CCN(C1CC1)*; X7 = CC[C@@]1(O)C(=O)OCc2c1cc1n(c2=O)Cc2c-1nc1ccccc1c2CCN(C)*; Propanoyl(3-maleimido) = O=C1C=CC(=O)N1CCC(=O)*; PEG6 = NCCOCCOCCOCCOCCOCCOCCC(=O)O

A selection of reference data follows.
>  <COMPOUND>
CC[C@@]1(O)C(=O)OCc2c1cc1n(c2=O)Cc2c-1nc1ccccc1c2CCN(C(=O)[C@H](CC(C)C)NC(=O)[C@H](Cc1ccccc1)NC(=O)CNC(=O)CNC(=O)CCOCCOCCOCCOCCOCCOCCNC(=O)CCN1C(=O)C=CC1=O)C(C)C [MI-6PEG-GGFL-Belotecan] ({Propanoyl(3-maleimido)-PEG6}-GGFL-Belotecan)

>  <ASSAY_SYSTEM>
colo320 colorectal cancer tumor model

>  <Mouse weight (%)>
+5%

$$$$
>  <COMPOUND>
CCN(CCc1c2c(nc3ccccc13)-c1cc3c(c(=O)n1C2)COC(=O)[C@]3(O)CC)C(=O)CNC(=O)[C@H](CC(N)=O)NC(=O)[C@H](C)NC(=O)CNC(=O)CCOCCOCCOCCOCCOCCOCCNC(=O)CCN1C(=O)C=CC1=O [MI-6PEG-GANG-D2] ({Propanoyl(3-maleimido)-PEG6}-GANG-{NEt(2-(20S-CPT-7-yl)ethyl)})

>  <ASSAY_SYSTEM>
colo320 colorectal cancer tumor model

>  <Mouse weight (%)>
+39%

$$$$
>  <COMPOUND>
CCN(CCc1c2c(nc3ccccc13)-c1cc3c(c(=O)n1C2)COC(=O)[C@]3(O)CC)C(=O)CNC(=O)[C@H](CCCCN)NC(=O)[C@H](C)NC(=O)[C@H](C)NC(=O)CCOCCOCCOCCOCCOCCOCCNC(=O)CCN1C(=O)C=CC1=O [MI-6PEG-AAKG-D2] ({Propanoyl(3-maleimido)-PEG6}-AAKG-{NEt(2-(20S-CPT-7-yl)ethyl)})

>  <ASSAY_SYSTEM>
colo320 colorectal cancer tumor model

>  <Mouse weight (%)>
+24%

$$$$

The measured Mouse weight (%) associated with CC[C@@]1(O)C(=O)OCc2c1cc1n(c2=O)Cc2c-1nc1ccccc1c2CCN(C(=O)CNC(=O)[C@H](CC(N)=O)NC(=O)[C@H](C)NC(=O)[C@H](C)NC(=O)CCOCCOCCOCCOCCOCCOCCNC(=O)CCN1C(=O)C=CC1=O)C1CC1 [MI-6PEG-AANG-D6] ({Propanoyl(3-maleimido)-PEG6}-AANG-X3) reads +17%

Entry CC[C@@]1(O)C(=O)OCC2=C1C=C1c3nc4ccccc4c(CCN(C(=O)OCc4ccc(NC(=O)[C@H](CC(N)=O)NC(=O)[C@H](C)NC(=O)[C@H](C)NC(=O)CCOCCOCCOCCOCCOCCOCCNC(=O)CCN5C(=O)C=CC5=O)cc4)C(C)C)c3CN1C2 [MI-6PEG-AAN-PAB-Belotecan] , Mouse weight (%) reported as +6%

Record CCN(CCc1c2c(nc3ccccc13)-c1cc3c(c(=O)n1C2)COC(=O)[C@]3(O)CC)C(=O)[C@H](CC(C)C)NC(=O)[C@H](CC(N)=O)NC(=O)[C@H](C)NC(=O)[C@H](C)NC(=O)CCOCCOCCOCCOCCOCCOCCNC(=O)CCN1C(=O)C=CC1=O [MI-6PEG-AANL-D2] ({Propanoyl(3-maleimido)-PEG6}-AANL-{NEt(2-(20S-CPT-7-yl)ethyl)}) . Reported Mouse weight (%): +19%

Briefly, Mouse weight (%) measured for CC[C@@]1(O)C(=O)OCc2c1cc1n(c2=O)Cc2c-1nc1ccccc1c2CCN(C)C(=O)[C@H](CC(C)C)NC(=O)[C@H](Cc1ccccc1)NC(=O)CNC(=O)CNC(=O)CCOCCOCCOCCOCCOCCOCCNC(=O)CCN1C(=O)C=CC1=O [MI-6PEG-GGFL-D1] ({Propanoyl(3-maleimido)-PEG6}-GGFL-X7) : +19%
